# Test system: NCI-H226 lung
# ASSAY COMMENT: NCI tumour cell line growth inhibition, 48 h

COMPOUND: ClCc1nnc2n1-c1ccc(Cl)cc1SC2
QUALIFIER OPERATOR: =
TGI (µM): 5.64

COMPOUND: CC12OC(C(=O)C13CC3)C1C(=O)c3cccc(O)c3C(=O)C12 (stereo not drawn)
QUALIFIER OPERATOR: =
TGI (µM): 78.5

COMPOUND: O=C(O)c1cc(C(=O)C(=O)c2cc(C(=O)O)c(O)c3ccccc23)c2ccccc2c1O
QUALIFIER OPERATOR: >
TGI (µM): 100

COMPOUND: Nc1n[nH]c2ccc([C@H]3[C@@H]4C5CCC(C5)[C@@H]4c4c(ccc5[nH]ncc45)N3S(=O)(=O)C3CC3)cc12 (stereo partly drawn)
QUALIFIER OPERATOR: =
TGI (µM): 10.1

COMPOUND: N#CCC(=O)N/N=C(/C(=O)Nc1ccccc1)C1C(=O)N(c2ccccc2)N=C1N (stereo not drawn)
QUALIFIER OPERATOR: >
TGI (µM): 100

COMPOUND: CN1CCC2(CC1)C(=O)N(NC(N)=O)C(=O)C2c1ccccc1 (stereo not drawn)
QUALIFIER OPERATOR: >
TGI (µM): 100

COMPOUND: COc1ccccc1NC(=S)NNC(=O)c1cc(-c2ccccc2)nc2ccccc12
QUALIFIER OPERATOR: =
TGI (µM): 51.9

COMPOUND: COc1ccc(/C=C2\N=C(N3CCOCC3)NC2=O)cc1
QUALIFIER OPERATOR: >
TGI (µM): 100

###

TGI values, listed per item
# System: M14 melanoma
# ASSAY COMMENT: NCI tumour cell line growth inhibition, 48 h
RECORDED METRIC: TGI

COMPOUND: COc1cc(C)cc(C(=O)OCc2ccccc2)c1C1=C(Cl)C(=O)C(Cl)=CC1=O
VALUE MEASURED: > 10 µM

COMPOUND: CCOC(=O)c1ccc(N(C)Cc2cnc3nc(N)nc(N)c3n2)cc1
VALUE MEASURED: 97.2 µM

COMPOUND: Cc1ccc(C)c(N2C(=O)C(=O)C(c3nc4ccccc4s3)C(=O)C2=O)c1
VALUE MEASURED: > 100 µM

COMPOUND: Brc1ccc(N=C/C=C(\Nc2ccc(Br)cc2)C23CC4CC(CC(C4)C2)C3)cc1
VALUE MEASURED: 71 µM

COMPOUND: CC1NC(=O)c2c(-c3ccccc3)nn(-c3ccccc3)c2NC1=O (stereo not given)
VALUE MEASURED: > 100 µM

COMPOUND: S=c1sc2sc(=S)sc2s1
VALUE MEASURED: 59 µM

COMPOUND: COC(=O)C(=O)C(C(=O)C(=O)Nc1ccccc1C(N)=O)c1nc2ccc([N+](=O)[O-])cc2[nH]c1=O (stereo not given)
VALUE MEASURED: > 100 µM

COMPOUND: O=C(O)CSc1nc2ccccc2[nH]1
VALUE MEASURED: > 100 µM

COMPOUND: COc1ccc(NS(=O)(=O)c2ccc3ncn(NS(=O)(=O)c4ccc(I)cc4)c(=O)c3c2)cc1
VALUE MEASURED: > 100 µM

COMPOUND: CCOc1ccc(N=C2NC(=O)C(CC(=O)Nc3ccc(Cl)cc3Cl)S2)cc1 (stereo not given)
VALUE MEASURED: > 100 µM
